Here's a batch of compounds along with measured pKi for hA2A receptors expressed in CHO cells (Homo sapiens).
pKi: −log10 of the molar value.

[
  {
    "COMPOUND": "CCNC(=O)[C@H]1O[C@@H](n2cnc3c(NNC(=O)c4cccs4)nc(Cl)nc32)[C@H](O)[C@@H]1O [Compound 22b]",
    "pKi": "< 6.00"
  },
  {
    "COMPOUND": "CCNC(=O)[C@H]1O[C@@H](n2cnc3c(NNC(=O)Cc4cccs4)nc(Cl)nc32)[C@H](O)[C@@H]1O [Compound 20b]",
    "pKi": 6.20
  },
  {
    "COMPOUND": "CCNC(=O)[C@H]1O[C@@H](n2cnc3c(NNC(=O)c4ccc[nH]4)nc(Cl)nc32)[C@H](O)[C@@H]1O [Compound 24b]",
    "pKi": "< 6.00"
  }
]

Consider the record given below.
Request: Find the recorded pKi belonging to CCNC(=O)[C@H]1O[C@@H](n2cnc3c(NNC(=O)c4nc([N+](=O)[O-])cn4C)ncnc32)[C@H](O)[C@@H]1O [Compound 15b] and report it.
Result: < 6.00

###

TARGET SYSTEM: hA2B receptors expressed in CHO cells (Homo sapiens)
Sequence (P29275 whole entry): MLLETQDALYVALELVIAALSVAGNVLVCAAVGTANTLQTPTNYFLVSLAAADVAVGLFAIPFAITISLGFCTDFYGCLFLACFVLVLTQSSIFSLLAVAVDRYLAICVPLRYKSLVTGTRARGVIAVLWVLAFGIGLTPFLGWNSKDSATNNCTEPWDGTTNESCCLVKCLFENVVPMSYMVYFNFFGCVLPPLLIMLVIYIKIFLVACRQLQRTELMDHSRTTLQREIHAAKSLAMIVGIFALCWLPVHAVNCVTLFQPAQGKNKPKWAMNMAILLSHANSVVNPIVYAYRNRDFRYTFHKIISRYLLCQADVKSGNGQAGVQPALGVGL
ASSAY NAME: cAMP assay hA2B CHO cells
ASSAY SETUP: stimulation of cAMP levels, hA2B CHO cells; mean ± s.e. mean
MEASURED METRIC: EC50

Use the examples below as a reference point.
[
  {
    "COMPOUND": "CCNC(=O)[C@H]1O[C@@H](n2cnc3c(NNC(=O)c4cc(C)on4)nc(Cl)nc32)[C@H](O)[C@@H]1O [Compound 25b]",
    "TARGET SYSTEM": "hA2B receptors expressed in CHO cells (Homo sapiens)",
    "READING": "> 1000 nM"
  },
  {
    "COMPOUND": "CCNC(=O)[C@H]1O[C@@H](n2cnc3c(NNC(=O)c4cccnc4)ncnc32)[C@H](O)[C@@H]1O [Compound 11b]",
    "TARGET SYSTEM": "hA2B receptors expressed in CHO cells (Homo sapiens)",
    "READING": "> 1000 nM"
  }
]

For every listed record, write down its EC50.
1. CCNC(=O)[C@H]1O[C@@H](n2cnc3c(NNC(=O)c4ccccc4)ncnc32)[C@H](O)[C@@H]1O [Compound 9b]
2. CCNC(=O)[C@H]1O[C@@H](n2cnc3c(NNC(=O)c4nc([N+](=O)[O-])cn4C)ncnc32)[C@H](O)[C@@H]1O [Compound 15b]
3. CCNC(=O)[C@H]1O[C@@H](n2cnc3c(NNC(=O)c4ccc(Cl)cc4)ncnc32)[C@H](O)[C@@H]1O [Compound 10b]

Result:
1: > 1000 nM; 2: > 1000 nM; 3: > 1000 nM

Every entry's value here was drawn from patent US7691825B2.
